For each entry below, report its TGI value.
tested on: OVCAR-8 ovarian; assay: NCI tumour cell line growth inhibition, 48 h

stdin: Check OVCAR-8 ovarian data and give TGI for `N[C@@H]1CCCC[C@@H]1N.O=P([O-])([O-])CN(CCN(CP(=O)([O-])[O-])CP(=O)([O-])[O-])CP(=O)([O-])[O-].[Pt+2]` .
stdout: > 25 µM

stdin: Give TGI only, for `O=C(OCc1ccccc1)N1CCNCCN(C(=O)OCc2ccccc2)CCNCC1` , using OVCAR-8 ovarian data.
stdout: > 100 µM

stdin: Give OVCAR-8 ovarian TGI for the following compound: CC(C)=CCC(O)C1=CC(=O)c2c(O)ccc(O)c2C1=O (centres undefined)
stdout: 3.35 µM

stdin: Answer with TGI of CC(C)c1cc2c(cc1S(=O)(=O)O)[C@@]1(C)CCC[C@@](C)(C(=O)O)C1CC2 (some centres undefined) measured for OVCAR-8 ovarian.
stdout: > 100 µM

stdin: State recorded TGI with OVCAR-8 ovarian, entry `Cc1cc(C)nc(NS(=O)(=O)c2ccc(NC(=O)c3ccc4nc5ccccc5c(Nc5ccc(S(N)(=O)=O)cc5)c4c3)cc2)n1` , no comment.
stdout: > 100 µM

stdin: Fill in: TGI on OVCAR-8 ovarian, entry CCOC(=O)C1=C(C(=O)OCC)C2c3ccccc3C=CN2C(C(=O)OCC)=C(SC)S1 (centres undefined)
stdout: > 100 µM

stdin: Give reported TGI for CN(C)CC1CC/C(=C\c2ccc(O)cc2)C1=O (centres undefined) (OVCAR-8 ovarian)
stdout: 14.6 µM

stdin: // fetch TGI for `COc1cccc(Nc2nc(-c3cccs3)nc3cc(OC)c(OC)cc23)c1` ; system: OVCAR-8 ovarian
stdout: 78.5 µM

stdin: Report value: TGI, system: OVCAR-8 ovarian, compound: CC1SC(c2ccc(F)cc2)N(NC(=O)C(O)c2ccccc2)C1=O (centres undefined)
stdout: > 100 µM
